As a worked illustration, we turn to pKi data collected for 5-hydroxytryptamine receptor 1B (Homo sapiens).
The quantity pKi is defined as the negative base-10 logarithm of the molar concentration.

COc1ccccc1N1CCN(CCCCCC(=O)NCc2ccccc2-c2ccccc2Cl)CC1 | 8.15

Moving on to another compound below.
Lookup: Recall the reported pKi of COc1ccccc1N1CCN(CCCCC(=O)NCc2ccccc2-c2ccccc2Cl)CC1 on 5-hydroxytryptamine receptor 1B (Homo sapiens) and write it down.
Sequence (P28222 whole entry): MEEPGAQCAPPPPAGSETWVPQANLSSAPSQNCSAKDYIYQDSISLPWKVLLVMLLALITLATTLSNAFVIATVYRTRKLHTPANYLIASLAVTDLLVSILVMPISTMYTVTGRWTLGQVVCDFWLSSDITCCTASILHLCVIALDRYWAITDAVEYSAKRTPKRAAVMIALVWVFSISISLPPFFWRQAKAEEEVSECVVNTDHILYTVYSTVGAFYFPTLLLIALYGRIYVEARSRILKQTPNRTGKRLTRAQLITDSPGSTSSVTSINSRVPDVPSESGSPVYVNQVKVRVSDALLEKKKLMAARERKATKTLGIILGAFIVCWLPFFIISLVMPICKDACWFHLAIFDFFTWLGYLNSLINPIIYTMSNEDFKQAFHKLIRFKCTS
Found: 6.88
